Numbers sourced from patent US10053463B2.

- TARGET OF ASSAY: P2X7 (Homo sapiens (Human), UniProt Q99572)
- Sequence (Q99572 whole entry): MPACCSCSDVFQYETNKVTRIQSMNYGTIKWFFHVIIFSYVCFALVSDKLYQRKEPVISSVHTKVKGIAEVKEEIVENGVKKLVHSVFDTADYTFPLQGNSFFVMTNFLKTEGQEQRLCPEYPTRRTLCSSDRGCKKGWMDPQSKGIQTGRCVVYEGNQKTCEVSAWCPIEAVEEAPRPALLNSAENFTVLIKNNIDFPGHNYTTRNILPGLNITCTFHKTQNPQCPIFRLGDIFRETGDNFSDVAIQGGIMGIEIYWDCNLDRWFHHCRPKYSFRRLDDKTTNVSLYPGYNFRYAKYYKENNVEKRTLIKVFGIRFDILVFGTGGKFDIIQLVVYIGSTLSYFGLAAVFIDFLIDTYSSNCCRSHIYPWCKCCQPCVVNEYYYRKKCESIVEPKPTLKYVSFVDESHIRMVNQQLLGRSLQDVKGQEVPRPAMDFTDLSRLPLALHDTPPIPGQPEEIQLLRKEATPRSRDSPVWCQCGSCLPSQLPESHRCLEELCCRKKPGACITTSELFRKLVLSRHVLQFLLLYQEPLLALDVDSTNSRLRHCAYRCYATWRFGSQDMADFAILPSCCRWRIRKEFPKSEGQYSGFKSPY
- TEST DETAILS: P2X7 antagonism in human peripheral blood mononuclear cells (PBMCs), IL-1β release
- Type: cell-based
- TEST CONTEXT: P2X7; Table 3 (additional runs); 10 μM compound; read-out: PBMC 10 μM (% control)
- Procedure: P2X7 Antagonism in Human Peripheral Blood Mononuclear Cells (PBMCs) and Human Whole Blood. Human blood was collected using a blood donor program. PBMCs were isolated from blood using a Ficoll density gradient technique. […] Data was expressed as percent control, where control is defined as the difference in IL-1β release in LPS+Bz-ATP samples and LPS only samples. […] Data are analyzed and graphed on Graphpad Prism 5. […]
Please provide measured remaining activity at 10 µM for the entries that follow.
Just the number in %, nothing appended.

**Query** Fill in reported remaining activity at 10 µM for this entry: C[C@H]1Cn2c(-c3cnccn3)nnc2-c2nnc(-c3cccc(C(F)(F)F)c3Cl)n21 [Example 99]
**Result** 34.3

**Query** Fill in reported remaining activity at 10 µM for this entry: C[C@H]1Cn2c(-c3cn[nH]c3)nnc2-c2nnc(-c3cccc(C(F)(F)F)c3Cl)n21 [Example 112]
**Result** 6.7

**Query** Fill in reported remaining activity at 10 µM for this entry: C[C@H]1Cn2c(nnc2-c2ccc(F)cc2)C(=O)N1Cc1cccc(C(F)(F)F)c1Cl [Example 17]
**Result** 2

**Query** Fill in reported remaining activity at 10 µM for this entry: C[C@H]1Cn2c(nnc2-c2ccccn2)C(=O)N1Cc1cccc(C(F)(F)F)c1Cl [Example 18]
**Result** -6.2
